Target: T1, human plasma Kallikrein (human, UniProt P03952 20-638)
T1 construct: also called hPK; human PK
T1 sequence (P03952 20-638 limits assumed): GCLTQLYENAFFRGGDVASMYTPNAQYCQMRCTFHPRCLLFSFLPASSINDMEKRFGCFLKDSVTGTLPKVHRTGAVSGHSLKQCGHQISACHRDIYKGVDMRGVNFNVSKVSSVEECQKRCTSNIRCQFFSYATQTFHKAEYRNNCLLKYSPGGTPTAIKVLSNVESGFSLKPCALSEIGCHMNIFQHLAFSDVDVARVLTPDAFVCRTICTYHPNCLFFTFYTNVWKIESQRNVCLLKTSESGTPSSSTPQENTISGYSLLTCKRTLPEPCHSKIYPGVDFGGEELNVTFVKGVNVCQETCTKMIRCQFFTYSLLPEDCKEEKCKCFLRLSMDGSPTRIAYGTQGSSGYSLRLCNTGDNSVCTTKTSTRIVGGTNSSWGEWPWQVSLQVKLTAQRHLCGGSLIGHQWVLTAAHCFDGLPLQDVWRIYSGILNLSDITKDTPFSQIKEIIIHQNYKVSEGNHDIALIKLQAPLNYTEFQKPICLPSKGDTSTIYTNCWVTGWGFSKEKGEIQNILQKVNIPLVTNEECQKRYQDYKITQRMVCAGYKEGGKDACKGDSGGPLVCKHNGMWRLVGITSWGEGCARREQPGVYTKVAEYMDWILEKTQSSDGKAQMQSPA
Experiment: phage binding assay
Numbered stars: 1 amine (or outer) side, 2 acyl side, 3 side chain; on linkers, the order of the positions; unused ones are H or OH. Bridge positions count the residues as written; N and C are the ends. Ends that are not written are not given here. TBMB = c1c(C[*:1])cc(C[*:3])cc1C[*:2]
Property Label: BINDING ASSAY SIGNAL

1) CAWPARCTHADLC (linker 1-7-13 via TBMB, on phage); 79
2) CAWPARCLHADMC (linker 1-7-13 via TBMB, on phage); 66
3) CVWPARCTHQDLC (linker 1-7-13 via TBMB, on phage); 71
